For each record, write down the corresponding TGI.
Tested on: EKVX NSCLC
Test: NCI tumour cell line growth inhibition, 48 h

Entry under test: C/C(=C\c1ccc(Cl)cc1)C(C)(C)C(=O)O . Its TGI was > 100 µM

Entry under test: O=C(c1ccccc1)c1c(C(F)(F)F)n([O-])c2ccccc2[n+]1=O . Its TGI was 6.04 µM

Entry under test: CCCCCCCCCCCC(=O)OCC1OC(n2cc(F)c(=O)[nH]c2=O)C(NC(=O)OCc2ccccc2)C(O)C1O (stereo unspecified) . Its TGI was 79.9 µM

Entry under test: Cn1nc(C(F)(F)F)c(-c2ccc(Cl)c(C(F)(F)F)c2)c1-c1ccc(OCc2ccc(Cl)cc2)cc1O . Its TGI was 7.73 µM

Entry under test: CCc1nnc(-n2c(C)nc3cc(Cl)ccc3c2=O)s1 . Its TGI was > 100 µM

Entry under test: CC(C)(C)N=C1CC(C)(C)c2ccccc2C(=Nc2ccccc2)S1 . Its TGI was > 100 µM

Entry under test: COP(=O)(OC)C(N)CCSC (stereo unspecified) . Its TGI was > 100 µM

Entry under test: O=C1/C(=C/c2ccccc2)CCc2ccc(Cl)nc21 . Its TGI was 38.3 µM

Entry under test: COC(=O)C(/C(=N/NC(=O)c1ccncc1)C(=O)Nc1ccccc1OC)c1nc2ccc(Cl)cc2[nH]c1=O (stereo unspecified) . Its TGI was > 100 µM

Entry under test: Cc1cccc(NC(=O)C(=O)C2C(=O)NC(=O)NC2=O)c1C . Its TGI was > 100 µM

Entry under test: CC1(O)C=CC2CCC1C2O (stereo unspecified) . Its TGI was > 100 µM
